D: recorded values
# Conditions: Table S5, injection 3, octanol/PBS pH 7.4
Metric name: D

{"Molecule": "Cc1nc2c([nH]1)CCN(C(=O)c1ccc(NC(=O)C3CC4CC3(c3ccccc3)C4)cc1)c1ccccc1-2 (centres unmarked) [Compound 26]", "Test result": "1.36E+04"}
{"Molecule": "O=C(NC1CCN(CCCCC2(C(=O)NCC(F)(F)F)c3ccccc3-c3ccccc32)CC1)c1ccccc1-c1ccc(C(F)(F)F)cc1 [Lomitapide, lomitapide]", "Test result": "6.79E+04"}
{"Molecule": "Cn1cc(C(=O)Nc2ccccc2-c2cc(F)c(F)c(F)c2)c(C(F)F)n1 [Fluxapyroxad, fluxapyroxad]", "Test result": "3.24E+03"}
{"Molecule": "O=C(NC1CCN(CCCCC2(C(=O)NCC(F)(F)F)c3ccccc3-c3ccccc32)CC1)C1CC2CC1(c1ccc(C(F)(F)F)cc1)C2 (centres unmarked) [Compound 27]", "Test result": "8.20E+03"}
{"Molecule": "Cn1cc(C(=O)NC2CC3CC2(c2ccc(Cl)c(Cl)c2)C3)c(C(F)F)n1 (centres unmarked) [Compound 29]", "Test result": "1.92E+04"}
